# Fold decrease in affinity values compiled below
- TARGET SYSTEM: T1, human NMI (N-myc Interacting protein), recombinant protein (human, UniProt Q13287 1-307, limits assumed)
- T1 construct: Gene ID: 9111; also called hNMI; antigen
- T1 sequence (looked up): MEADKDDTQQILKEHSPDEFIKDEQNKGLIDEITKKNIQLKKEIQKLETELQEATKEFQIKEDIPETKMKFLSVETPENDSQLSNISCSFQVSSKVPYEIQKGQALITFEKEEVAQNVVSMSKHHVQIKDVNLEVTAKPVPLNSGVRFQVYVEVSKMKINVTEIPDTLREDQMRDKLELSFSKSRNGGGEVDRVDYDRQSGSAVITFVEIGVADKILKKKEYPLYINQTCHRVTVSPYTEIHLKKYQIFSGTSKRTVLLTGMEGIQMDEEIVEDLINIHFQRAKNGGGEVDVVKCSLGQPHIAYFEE
- PROTOCOL NOTES: ELISA EC50 against parent 98G10
I only need the number, in fold, no unit after it.

Entry 98G10-H-5 (antibody, V domains shown, also called 98G10 Y112E (VH)) VH: QEQLEESGGDLVKPEGSLTLTCTASGFSFSASYWICWVRQAPGKGLEWIACIYGGSSGSAYYASWAKGRFTISKTSSTTVTLQMTSLTAADTATYFCARAGYYNYGSAGDIEPSSFKLWGPGTLVTVSS VL: DIVMTQTPASVEAAVGGTVTINCQASQSISTALAWYQQKPGQPPKLLIYTASKVASGVPSRFSGSGSGTQFTLTISDLECADAATYYCQNYYYSSSSITFGGGTEVVVK — recorded Fold decrease in affinity = 59.7

Entry 98G10-H-10 (antibody, V domains shown, also called 98G10 W34T, Y112R (VH)) VH: QEQLEESGGDLVKPEGSLTLTCTASGFSFSASYTICWVRQAPGKGLEWIACIYGGSSGSAYYASWAKGRFTISKTSSTTVTLQMTSLTAADTATYFCARAGYYNYGSAGDIRPSSFKLWGPGTLVTVSS VL: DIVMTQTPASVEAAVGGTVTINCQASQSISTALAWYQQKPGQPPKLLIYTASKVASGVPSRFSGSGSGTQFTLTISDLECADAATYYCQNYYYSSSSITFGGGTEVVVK — recorded Fold decrease in affinity = 60

Entry 98G10-L-2 (antibody, V domains shown, also called 98G10 Y93S (VL)) VH: QEQLEESGGDLVKPEGSLTLTCTASGFSFSASYWICWVRQAPGKGLEWIACIYGGSSGSAYYASWAKGRFTISKTSSTTVTLQMTSLTAADTATYFCARAGYYNYGSAGDIYPSSFKLWGPGTLVTVSS VL: DIVMTQTPASVEAAVGGTVTINCQASQSISTALAWYQQKPGQPPKLLIYTASKVASGVPSRFSGSGSGTQFTLTISDLECADAATYYCQNYYSSSSSITFGGGTEVVVK — recorded Fold decrease in affinity = 1.71
